- Method Description: folding enthalpy; higher = less favourable; fluorescence melt of hairpins on a sequencing array, two-state fit
- Assay Setup: sodium 0.088 M
Param threshold (-100 kJ/mol) applies to folding enthalpy; output YES when value >= threshold, NO when value < threshold.

Example entries begin here.
# Residue Codes, Category
measured = [
    ("GTGAGTGGAAACACTCAC (((((((....)))))))", "NO"),
    ("GATTCCGAAAGGAGGATC ((((((....)))..)))", "YES"),
    ("GAGTGCGAAAGCACCCTC ((((((....)))..)))", "YES"),
    ("GATCAGGGACTGATC ((((((...))))))", "NO"),
    ("GACGCACGAAAGTGTGTC (((.(((....))).)))", "NO"),
]

Challenge: Hello, I need to know if GGTTTGCGAAAGCAACC (((.(((....)))))) has measured folding enthalpy not below -100 kJ/mol. Thanks!
Response given: YES

Challenge: // query: GGGACTGGAAACAGCCCC (((.(((....))).)))
Response given: NO

* * *

- Method Description: melting temperature; fluorescence melt of hairpins on a sequencing array, two-state fit, raised by 9.35 °C to match UV melts
- Assay Setup: sodium 0.088 M
Result Type: Tm (°C)
Give bare numbers, in °C.

For each listed entry, give its Tm.
1. GCGAGCACGAAAGTGCGC (((..(((....))))))
2. GATCCACAATGGATC ((((((...))))))
3. GTGACGGGAAACCGCCAC (((.(((....))).)))

Response given:
1: 56.9; 2: 48.3; 3: 52.2

* * *

For each entry below, report its Tm value.
- Method Description: melting temperature; fluorescence melt of hairpins on a sequencing array, two-state fit, raised by 9.35 °C to match UV melts
- Assay Setup: sodium 0.088 M

# example entries with known answers
# Residue Codes, Endpoint Value
data = [
    ("GATCCAAGATTGGATC ((((((....))))))", "50.3 °C"),
    ("GTTGCAGGAAACCGCAAC (((((.(....).)))))", "51.5 °C"),
    ("GCGACGTCTCGC ((((....))))", "54.2 °C"),
]

Please report Tm for every entry that follows.
1. GTGAGCGAAAGCTCTCAC ((((((....)))..)))
2. GTCGATGGAAACATCGAC (((((((....)))))))
3. GATCGCAACAGCGATC ((((((....))))))

Response given:
40.6 °C
67.3 °C
69.1 °C

Please report Tm for every entry that follows.
1. GATCCCCTTGGGATC ((((((...))))))
2. GCATGAGGAAACTCATGC (((((((....)))))))
3. GATCGTGTCACGATC ((((((...))))))
4. GCAGGGCGAAAGCACAGC ((.(.((....)).).))

Response given:
63.6 °C
65.3 °C
59.3 °C
56.8 °C

// each listed sequence needs a value for Tm
1. GGTAATCGAAAGATGACC (((.(((....))).)))
2. GGCTAATCGAAAGATGCC (((..(((....))))))

Response given:
1: 47.5 °C; 2: 45.2 °C

Consider the following items and state reported Tm for each.
1. GTTGTCGAAAGACCAAC ((((((....))).)))
2. GGATTTGGAAACAAATCC (((((((....)))))))
3. GACATAACGAAAGTTGTC (((..(((....))))))
4. GACGCCCCGAAAGGGGTC (((..(((....))))))
5. GTAAGAACGAAAGTTTAC (((..(((....))))))

Response given:
["38 °C", "58.2 °C", "37.4 °C", "40.2 °C", "24.3 °C"]

Consider the following items and state reported Tm for each.
1. GATCGTAGAAACGATC ((((((....))))))
2. GATAAAACGAAAGTTATC (((..(((....))))))
3. GATCCATTGTTGGATC ((((((....))))))

Response given:
["51.1 °C", "22.7 °C", "52.2 °C"]

Respectfully, I request Tm for each entry included below.
1. GCTTTGCGAAAGCGGAGC (((..((....))..)))
2. GATCACGTCTGTGATC ((((((....))))))
3. GCACGCGAAAGCGATGC ((((((....))).)))
4. GATCCAACTCTGGATC ((((((....))))))
5. GCCAACGAAAGTTCAGGC ((((((....)))..)))

Response given:
53.6 °C
59.5 °C
65.2 °C
49.2 °C
40.7 °C

For every listed record, write down its Tm.
1. TCGGAGAAATCCGA (((((....)))))
2. GTGGTCCGAAAGGAGCAC (((.(((....))).)))
3. GGCGAGGGAAACCTCGTC (.(((((....))))).)
4. GATCTCTGTCGAGATC ((((((....))))))
5. GTGCGTGGAAACGCGCAC (((((.(....).)))))
6. GGATCTGCGAAAGCATCC (((..(((....))))))

Response given:
47.3 °C
67.6 °C
60.8 °C
51.8 °C
65.6 °C
35.2 °C

Hi, could you look up Tm for each item in my list?
1. GCCACGCGAAAGCCTGGC ((((.((....)).))))
2. GCCGTCCGAAAGGAGGC (((.(((....))))))
3. GCTATGTCGAAAGACAGC (((..(((....))))))
4. GGGTACGCGAAAGCGCCC (((..(((....))))))

Response given:
59.6 °C
58.4 °C
41.5 °C
47.2 °C

The origin of these recorded values is the array DNA melting data of Ke et al. (doi:10.1101/2024.01.08.574731).
